target-under-test: unphosphorylated-BTK kinase domain (UP-BTK), GST-tagged human BTK (389-659aa) (Homo sapiens (Human))
Sequence (Q06187 389-659): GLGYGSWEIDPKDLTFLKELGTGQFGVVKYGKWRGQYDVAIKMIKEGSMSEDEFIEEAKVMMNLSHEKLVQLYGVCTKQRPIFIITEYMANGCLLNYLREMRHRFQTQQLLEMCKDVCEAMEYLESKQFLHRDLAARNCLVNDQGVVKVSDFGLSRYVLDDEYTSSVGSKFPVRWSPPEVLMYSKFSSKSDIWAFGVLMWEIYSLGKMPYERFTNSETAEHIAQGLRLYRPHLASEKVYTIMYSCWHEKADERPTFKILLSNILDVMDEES
assay-overview: BTK Kinase Lanthascreen Binding Assay
stated-conditions: Lanthascreen binding, 60 minutes incubation; pIC50 = negative log of the IC50 in molar
observed-property: BTK_I_binding pIC50

> print(dat)
                                   molecule    observed.property  observed.measurement
1  Cc1cc(Oc2ccccc2)ccc1N1C(=O)Nc2c(C(=O)N[C@@H]3CCCC[C@H]3NC(=O)CN)sc3nccc1c23 (single isomer, unassigned) [Example 441]  BTK_I_binding pIC50                  7.01
2  C=CC(=O)N[C@H]1CCC[C@H]1NC(=O)c1sc2nccc3c2c1NC(=O)N3c1cc(-c2ccccc2)cnn1 [Example 320]  BTK_I_binding pIC50                  7.23
3  C=CC(=O)N[C@H]1CCCC[C@H]1NC(=O)c1sc2nccc3c2c1NC(=O)N3c1ncc(Oc2ccccc2)cn1 [Example 297]  BTK_I_binding pIC50                  8.53

====

target-under-test: unphosphorylated-BTK kinase domain (UP-BTK), GST-tagged human BTK (389-659aa) (Homo sapiens (Human))
assay-overview: BTK Kinase Lanthascreen Binding Assay
stated-conditions: Lanthascreen binding, 60 minutes incubation; pIC50 = negative log of the IC50 in molar
Method: BTK Kinase Lanthascreen Binding Assay: A BTK kinase lanthascreen binding assay monitors compound binding to unphosphorylated-BTK kinase domain (UP-BTK), by competing with a fluorescent labeled tracer. […] Data were analyzed using Xlfit™ version 5.3 from ID Business Solutions (Guildford), Microsoft Excel add-in. pIC50 refers to the negative log of the IC50 in molar.
observed-property: BTK_I_binding pIC50

> print(dat)
                                   molecule  observed.measurement
1  CC(=O)N[C@H]1CCC[C@H]1NC(=O)c1sc2nccc3c2c1NC(=O)N3c1cnc(Oc2ccccc2)cc1C (single isomer, unassigned)                  6.39
2  C=CC(=O)N[C@@H]1CCC[C@H]1NC(=O)c1sc2nccc3c2c1NC(=O)N3c1ccnc(-c2cccnc2)c1                  6.72
3  C=CC(=O)N[C@H]1CCC[C@H]1NC(=O)c1sc2nccc3c2c1NC(=O)N3c1cnc(NC(C)C)cc1C                  6.69

====

target-under-test: unphosphorylated-BTK kinase domain (UP-BTK), GST-tagged human BTK (389-659aa) (Homo sapiens (Human))
assay-overview: BTK Kinase Lanthascreen Binding Assay
stated-conditions: compound, 50 nM Tracer 236, 2 nM anti-GST antibody, 60 minutes; pIC50 = negative log of the IC50 in molar
observed-property: BTK_I_binding pIC50

Consider the following illustrative entries.
> print(dat)
                                   compound    observed.property  observed.measurement
1  N[C@H]1CCCC[C@H]1NC(=O)c1sc2nccc3c2c1NC(=O)N3c1ccnc(-c2ccccc2)c1  BTK_I_binding pIC50                  6.45
2  Cc1cc(Oc2ccccc2)ccc1N1C(=O)Nc2c(C(=O)N[C@H]3CC[C@@H](N(C)C)CC3)sc3nccc1c23 [Example 99]  BTK_I_binding pIC50                  7.03

1 = CCC(=O)N[C@H]1CCCC[C@@H]1NC(=O)c1sc2nccc3c2c1NC(=O)N3c1ccc(Oc2ccccc2)cc1C
2 = C=CC(=O)N[C@H]1CCC[C@H]1NC(=O)c1sc2nccc3c2c1NC(=O)N3c1ccnc(-c2ccccc2)c1
Qu. Of the two listed items, which has the higher BTK_I_binding pIC50? First: 1 Second: 2 Selection: enter the item's label.
Ans. 2
